Values compiled from PubChem BioAssay AID1259418.

Below, each entry is listed with its recorded max activity.
Experiment: inhibitors of Toxoplasma growth in IFN-γ-primed HeLa – cell-based, ME49Luc, luciferase, 72 h, dose response (AID 1259418)
Settings: T. gondii ME49Luc in IFN-y HeLa, active compounds read low, -100% = high-dose IFN-γ control wells; at 19.5 µM unless noted
Hit rate of the full screen: of about 3,400 compounds, about 840 (25%) were called active. Another 11% or so got no clear call; they are omitted. Only a sample is shown. Potency and affinity values are given separately.

| compound | max activity |
| --- | --- |
| COc1ccc(-c2nc(N3CCN(c4cccc(C)c4)C(C)C3)c3ccccc3n2)cc1 (centres undefined) | 60.7% (inactive) |
| O=C(NC1CCCC1)N1[C@@H]2CNC[C@H]1C2c1ccc(-c2cccnc2)cc1 (some centres undefined) | 19.4% (inactive) |
| Cc1ccccc1NC(=O)CN1CCC2(CC1)N=C(c1ccc(Cl)cc1)C(=O)N2 | -13.7% [at 1.35 µM] (inactive) |
| OC[C@@H]1Nc2ccc(-c3cccc(F)c3)cc2[C@H]2[C@@H]1CCN2Cc1ccc(F)cc1 | 42.2% [at 10 µM] (inactive) |
| O=C(c1cccs1)N1CCC2(CC1)Nc1cc(F)ccc1-n1cccc12 | 9.34% [at 0.68 µM] (inactive) |
| CCOc1ccccc1NC(=O)CN1CCC2(CC1)N=C(c1cccc(Cl)c1)C(=O)N2 | 5.75% (inactive) |
| CCOc1ccccc1-c1noc(-c2nnn(Cc3nc(-c4cccc(C)c4)oc3C)c2C)n1 | -4.72% [at 5 µM] (inactive) |
| O=C(Cn1c(=O)c(S(=O)(=O)c2ccccc2)cc2ccccc21)NCc1ccccc1Cl | -23.2% [at 0.16 µM] (inactive) |
| Cc1ccc(C)c(N2CCN(c3nc(-c4ccc(Cl)cc4)nc4ccccc34)CC2)c1 | 16.9% (inactive) |
